Target: Mu-type opioid receptor (Rattus norvegicus) (UniProt P33535)
Sequence (P33535 whole entry): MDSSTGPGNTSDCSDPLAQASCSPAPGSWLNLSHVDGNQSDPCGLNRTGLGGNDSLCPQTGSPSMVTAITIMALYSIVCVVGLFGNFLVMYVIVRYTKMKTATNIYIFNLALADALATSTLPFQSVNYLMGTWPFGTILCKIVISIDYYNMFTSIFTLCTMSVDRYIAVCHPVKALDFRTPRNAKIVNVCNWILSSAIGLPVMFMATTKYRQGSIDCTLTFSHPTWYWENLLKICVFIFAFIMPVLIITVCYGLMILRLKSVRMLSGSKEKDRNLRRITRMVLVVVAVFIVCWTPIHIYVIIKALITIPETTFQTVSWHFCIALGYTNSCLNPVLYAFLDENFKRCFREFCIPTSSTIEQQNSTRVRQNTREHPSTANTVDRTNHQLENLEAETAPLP
Assay: Agonist activity at rat mu opioid receptor expressed in rat C6 cells assessed as stimulation of [35S]GTPgammaS binding at 10 uM after 1 hr by liquid scintillation counting relative to DAMGO
Format: functional, cell-based
Numbered stars: 1 amine (or outer) side, 2 acyl side, 3 side chain; on linkers, the order of the positions; unused ones are H or OH. Bridge positions count the residues as written; N and C are the ends. Square brackets hold non-standard residues; d marks the D form. Peptide text beside a SMILES is read from it. 1Nal = N[C@@H](Cc1cccc2ccccc12)C(=O)O; 2Nal = N[C@@H](Cc1ccc2ccccc2c1)C(=O)O; CH2 = C([*:1])[*:2]
OBSERVABLE: Efficacy (%)

- COMPOUND: "NC(=O)[C@@H]1CSSC[C@@H](NC(=O)[C@@H](N)Cc2ccc(O)cc2)C(=O)N[C@@H](Cc2cccc3ccccc23)C(=O)N[C@@H](Cc2ccccc2)C(=O)N1 (H-Y[dC][1Nal]FC-NH2; disulfide 2-5)"
  OBSERVED_VALUE: 33
- COMPOUND: "NC(=O)[C@@H]1CSSC[C@@H](NC(=O)[C@@H](N)Cc2ccc(O)cc2)C(=O)N[C@@H](Cc2ccccc2)C(=O)N[C@@H](Cc2cccc3ccccc23)C(=O)N1 (H-Y[dC]F[1Nal]C-NH2; disulfide 2-5)"
  OBSERVED_VALUE: 88
- COMPOUND: "NC(=O)[C@@H]1CSCSC[C@@H](NC(=O)[C@@H](N)Cc2ccc(O)cc2)C(=O)N[C@@H](Cc2ccc3ccccc3c2)C(=O)N[C@@H](Cc2ccccc2)C(=O)N1 (H-Y[dC][2Nal]FC-NH2; linker 2-5 via CH2)"
  OBSERVED_VALUE: 34
- COMPOUND: "NC(=O)[C@@H]1CSCSC[C@@H](NC(=O)[C@@H](N)Cc2ccc(O)cc2)C(=O)N[C@@H](Cc2cccc3ccccc23)C(=O)N[C@@H](Cc2ccccc2)C(=O)N1 (H-Y[dC][1Nal]FC-NH2; linker 2-5 via CH2)"
  OBSERVED_VALUE: 91
- COMPOUND: "NC(=O)[C@@H]1CSSC[C@@H](NC(=O)[C@@H](N)Cc2ccc(O)cc2)C(=O)N[C@@H](Cc2ccccc2)C(=O)N[C@@H](Cc2ccc3ccccc3c2)C(=O)N1 (H-Y[dC]F[2Nal]C-NH2; disulfide 2-5)"
  OBSERVED_VALUE: 90

====

Molecular target: Delta-type opioid receptor (Rattus norvegicus, UniProt P33533)
Sequence (P33533 whole entry): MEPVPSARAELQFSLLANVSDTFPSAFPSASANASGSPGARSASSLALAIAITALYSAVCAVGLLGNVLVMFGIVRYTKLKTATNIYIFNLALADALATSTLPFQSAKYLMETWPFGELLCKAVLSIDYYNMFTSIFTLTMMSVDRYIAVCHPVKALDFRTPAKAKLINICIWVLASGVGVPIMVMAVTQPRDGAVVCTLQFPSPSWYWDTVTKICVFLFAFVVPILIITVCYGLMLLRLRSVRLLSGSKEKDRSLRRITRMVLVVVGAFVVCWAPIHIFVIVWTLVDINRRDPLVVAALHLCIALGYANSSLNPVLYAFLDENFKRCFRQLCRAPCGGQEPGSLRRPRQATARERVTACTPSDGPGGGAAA
Assay: Displacement of [3H]diprenorphine from rat delta opioid receptor expressed in rat C6 cells after 1 hr by liquid scintillation counting
Format: cell-based
Numbered stars: 1 amine (or outer) side, 2 acyl side, 3 side chain; on linkers, the order of the positions; unused ones are H or OH. Bridge positions count the residues as written; N and C are the ends. Square brackets hold non-standard residues; d marks the D form. Peptide text beside a SMILES is read from it. 1Nal = N[C@@H](Cc1cccc2ccccc12)C(=O)O; 2Nal = N[C@@H](Cc1ccc2ccccc2c1)C(=O)O; CH2 = C([*:1])[*:2]
OBSERVABLE: Ki (nM)

- COMPOUND: "NC(=O)[C@@H]1CSSC[C@@H](NC(=O)[C@@H](N)Cc2ccc(O)cc2)C(=O)N[C@@H](Cc2cccc3ccccc23)C(=O)N[C@@H](Cc2ccccc2)C(=O)N1 (H-Y[dC][1Nal]FC-NH2; disulfide 2-5)"
  OBSERVABLE: "Ki"
  UNITS_SYMBOL: "nM"
  OBSERVED_VALUE: 34
- COMPOUND: "NC(=O)[C@@H]1CSCSC[C@@H](NC(=O)[C@@H](N)Cc2ccc(O)cc2)C(=O)N[C@@H](Cc2ccccc2)C(=O)N[C@@H](Cc2ccc3ccccc3c2)C(=O)N1 (H-Y[dC]F[2Nal]C-NH2; linker 2-5 via CH2)"
  OBSERVABLE: "Ki"
  UNITS_SYMBOL: "nM"
  OBSERVED_VALUE: 0.48
- COMPOUND: "NC(=O)[C@@H]1CSSC[C@@H](NC(=O)[C@@H](N)Cc2ccc(O)cc2)C(=O)N[C@@H](Cc2ccc3ccccc3c2)C(=O)N[C@@H](Cc2ccccc2)C(=O)N1 (H-Y[dC][2Nal]FC-NH2; disulfide 2-5)"
  OBSERVABLE: "Ki"
  UNITS_SYMBOL: "nM"
  OBSERVED_VALUE: 55
- COMPOUND: "NC(=O)[C@@H]1CSCSC[C@@H](NC(=O)[C@@H](N)Cc2ccc(O)cc2)C(=O)N[C@@H](Cc2cccc3ccccc23)C(=O)N[C@@H](Cc2ccccc2)C(=O)N1 (H-Y[dC][1Nal]FC-NH2; linker 2-5 via CH2)"
  OBSERVABLE: "Ki"
  UNITS_SYMBOL: "nM"
  OBSERVED_VALUE: 34
- COMPOUND: "NC(=O)[C@@H]1CSSC[C@@H](NC(=O)[C@@H](N)Cc2ccc(O)cc2)C(=O)N[C@@H](Cc2ccccc2)C(=O)N[C@@H](Cc2ccc3ccccc3c2)C(=O)N1 (H-Y[dC]F[2Nal]C-NH2; disulfide 2-5)"
  OBSERVABLE: "Ki"
  UNITS_SYMBOL: "nM"
  OBSERVED_VALUE: 11
